Target: T1, ARM repeat domain of human β-catenin (residues 134–671) (human, UniProt P35222 134-671)
T1 construct: β-catenin, human, ARM repeat domain, residues 134–671; Plasmid was a gift from W.I. Weis; source: E. coli C41, purified (glutathione-Sepharose 4B, thrombin cleavage on resin, Mono-Q)
T1 sequence (looked up): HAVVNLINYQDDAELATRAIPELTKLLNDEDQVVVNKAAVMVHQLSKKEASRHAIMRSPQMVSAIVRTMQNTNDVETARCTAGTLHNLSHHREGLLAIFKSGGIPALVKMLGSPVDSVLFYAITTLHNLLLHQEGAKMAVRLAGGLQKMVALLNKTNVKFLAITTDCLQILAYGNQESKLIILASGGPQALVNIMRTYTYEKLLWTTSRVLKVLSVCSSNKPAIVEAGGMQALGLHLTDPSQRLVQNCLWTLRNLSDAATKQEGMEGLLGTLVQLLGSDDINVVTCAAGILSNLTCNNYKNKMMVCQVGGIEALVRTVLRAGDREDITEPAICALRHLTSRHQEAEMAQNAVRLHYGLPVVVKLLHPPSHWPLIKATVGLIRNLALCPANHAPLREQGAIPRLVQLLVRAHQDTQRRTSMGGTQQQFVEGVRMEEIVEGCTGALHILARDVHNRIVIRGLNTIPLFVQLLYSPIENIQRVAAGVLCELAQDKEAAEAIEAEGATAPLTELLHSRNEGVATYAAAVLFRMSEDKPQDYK
Assay: fluorescence spectroscopy kinetics (dissociation, fluorimeter); pre-formed 1:1 complex of labelled TCF7L2 and β-catenin mixed 1:1 with 50-times molar excess of unlabelled TCF7L2; PBS, 1 mM DTT, 15 °C; fitted to sums of exponential phases
Conditions: both partners purified
No end group written: not given here.
Listed here: items and their measured koff,major (major slow phase of biphasic dissociation).
Respond with the bare value in s⁻¹.

Recorded koff,major (major slow phase of biphasic dissociation), per entry:
>  <binder>
TCF7L2 (1–54) S31C D23A, fluorescein-labelled (domain or fragment, UniProt Q9NQB0 1-54, looked up, One extra serine is left behind after thrombin cleavage of the tag; source: E. coli C41, purified (Ni-NTA, thrombin cleavage, Superdex 75), labelled with fluorescein maleimide) MPQLNGGGGDDLGANDELISFKAEGEQEEKC(fluorescein maleimide)SENSSAERDLADVKSSLVNESET

>  <obs_value>
0.0003

$$$$
>  <binder>
TCF7L2 (1–54) S31C E24A, fluorescein-labelled (domain or fragment, UniProt Q9NQB0 1-54, looked up, One extra serine is left behind after thrombin cleavage of the tag; source: E. coli C41, purified (Ni-NTA, thrombin cleavage, Superdex 75), labelled with fluorescein maleimide) MPQLNGGGGDDLGANDELISFKDAGEQEEKC(fluorescein maleimide)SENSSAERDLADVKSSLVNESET

>  <obs_value>
0.000503

$$$$
>  <binder>
TCF7L2 (1–54) S31C, labelled with fluorescein maleimide at Cys31 (domain or fragment, UniProt Q9NQB0 1-54, looked up, One extra serine is left behind after thrombin cleavage of the tag; also called fluorescein-labelled WT; fluorescent-labelled WT TCF7L2 (1–54); source: E. coli C41, purified (Ni-NTA, thrombin cleavage, Superdex 75), labelled with fluorescein maleimide) MPQLNGGGGDDLGANDELISFKDEGEQEEKC(fluorescein maleimide)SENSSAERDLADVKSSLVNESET

>  <obs_value>
0.000573

$$$$
>  <binder>
TCF7L2 (1–54) S31C E24A E29A, fluorescein-labelled (domain or fragment, UniProt Q9NQB0 1-54, looked up, One extra serine is left behind after thrombin cleavage of the tag; also called double mutant; source: E. coli C41, purified (Ni-NTA, thrombin cleavage, Superdex 75), labelled with fluorescein maleimide) MPQLNGGGGDDLGANDELISFKDAGEQEAKC(fluorescein maleimide)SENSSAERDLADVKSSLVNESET

>  <obs_value>
0.000425

$$$$

## Task Quickly give me recorded koff,major (major slow phase of biphasic dissociation) for TCF7L2 (1–54) S31C E28A, fluorescein-labelled (domain or fragment, UniProt Q9NQB0 1-54, looked up, One extra serine is left behind after thrombin cleavage of the tag; source: E. coli C41, purified (Ni-NTA, thrombin cleavage, Superdex 75), labelled with fluorescein maleimide) MPQLNGGGGDDLGANDELISFKDEGEQAEKC(fluorescein maleimide)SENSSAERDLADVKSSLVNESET
## Result 0.000496

## Task Determine from records and report koff,major (major slow phase of biphasic dissociation) for TCF7L2 (1–54) S31C L48A, fluorescein-labelled (domain or fragment, UniProt Q9NQB0 1-54, looked up, One extra serine is left behind after thrombin cleavage of the tag; source: E. coli C41, purified (Ni-NTA, thrombin cleavage, Superdex 75), labelled with fluorescein maleimide) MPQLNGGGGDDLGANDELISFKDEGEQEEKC(fluorescein maleimide)SENSSAERDLADVKSSAVNESET
## Result 0.00132
